- Test system: OVCAR-5 ovarian
- METHOD: NCI-60 one-dose screen, 48 h (100 = growth as untreated, 0 = no growth, -100 = all killed)
- CONDITION: 10 µM unless noted
The panel holds about 83,000 compounds, 20% with a hit somewhere; the sample as a whole holds those more often. The source made the active and inactive calls. Rule for the calls: active = growth percent below 10; inactive = the rest.
growth by entry:

Here's what some known entries look like.
>  <COMPOUND>
O=c1[nH]cnc2c1C(c1ccc(Br)cc1)c1sc3c(F)cccc3c1O2 (stereo not given)

>  <growth>
90.7% (inactive)

$$$$
>  <COMPOUND>
O=C1NC(=O)c2c1c1c3ccccc3[nH]c1c1oc3cc(Br)ccc3c21

>  <growth>
98.9% (inactive)

$$$$
>  <COMPOUND>
O=C1CCCc2nc3sc4c(=O)n(-c5ccccc5Cl)nnc4c3cc21

>  <growth>
100% (inactive)

$$$$
>  <COMPOUND>
COC(=O)c1c2c(n3ccc(C)cc13)C(=O)c1ccccc1C2=O

>  <growth>
116% (inactive)

$$$$

So what does the record say about growth for CCCCCCCCCCCCCCCCOC(=O)c1c(C)[nH]c(/C=C2\N=C(c3ccc[nH]3)C=C2OC)c1C ?
78.4% (inactive)

So what does the record say about growth for N/C(=N\c1nc2ccccc2s1)NC(=NC1CCCCC1)NC1CCCCC1 ?
24.6% (inactive)

So what does the record say about growth for COc1ccc(-c2oc(=O)ccc2-c2cc(OC)c(OC)c(OC)c2)cc1O ?
35.7% (inactive)

So what does the record say about growth for Cc1cc(N2CCCCC2)nc(N2CCN(CC(=O)Nc3ccc4c(ccn4Cc4ccccc4)c3)CC2)n1 ?
88.7% (inactive)

So what does the record say about growth for CCCCCCCCn1ccc2cc(NC(=O)Cn3cc(CN4CCCCCC4)nn3)ccc21 ?
35.6% (inactive)

So what does the record say about growth for CN1C(=O)/C(=C/c2ccc(C(=O)Nc3ncc(Cc4ccc(F)cc4)s3)cc2)SC1=S ?
61.2% (inactive)

----------
- Test system: NCI-H460 lung
- METHOD: NCI-60 one-dose screen, 48 h
- CONDITION: 10 µM unless noted
The panel holds about 83,000 compounds, 20% with a hit somewhere; the sample as a whole holds those more often. Active and inactive are the calls of the source. How the source made its calls: active means growth percent below 10; inactive means the rest.
Please state which outcome applies, choosing from 1 (active), -1 (inactive)

The examples below pair each entry with its known result.
>  <MOLECULE>
O=C(O)C1CN(c2cccc(Cl)c2)N(c2cccc(Cl)c2)C1=O (centres undefined)

>  <CAT>
-1

$$$$
>  <MOLECULE>
COc1cc(-c2nc3occn3c2-c2ccnc(NCCCNS(=O)(=O)c3ccccc3)n2)ccc1F

>  <CAT>
-1

$$$$
>  <MOLECULE>
CCOC(=O)c1c(-c2ccc(Cl)cc2)c(C#N)c2c(C#N)c(N)nn2c1N

>  <CAT>
-1

$$$$

Write down the call the test reported for this molecule. Item: CCN(CC)CCNC(=O)c1ccc(-c2nc3ccc4[nH]ncc4c3c3c2CCCC3)cc1
-1

Write down the call the test reported for this molecule. Item: N=C(N)c1ccc(-c2ccc(-c3ccc(Cl)cc3)o2)o1
1

Write down the call the test reported for this molecule. Item: CC(/C=C1\SC(=S)N(CC(=O)NC(Cc2c[nH]c3ccccc23)C(=O)O)C1=O)=C\c1ccccc1 (centres undefined)
-1
